FYI, the data here is from the supplement of paper PMC10567573.

experiment: protein stability index of a GFP-peptide fusion (GPS, HEK-293T) (PSI 1-6); higher = more stable; conditions: treatment: DMSO; c terminus: a fixed tail appended;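 also: 24-mer peptide tiles fused after GFP, lentivirally expressed, FACS-sorted into six equal bins by GFP/DsRed ratio, decoded by Illumina sequencing, PSI is the read-weighted mean bin number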
Please enter fulfilled where protein stability index is greater than or equal to 3, and not fulfilled where it is lower.

Solved entries:
> print(dat)
                         residue.codes  discrete.label
1     SAPEQELLVQDATPVSNSLLPEKA [GFOD1]       fulfilled
2  MAGRLMIRKLVAEKLNIPWNHIRL [AASDHPPT]   not fulfilled
3   DSEEEVIERANNVKYGLAATVWSS [ALDH8A1]       fulfilled

Task: Determine whether this sequence has protein stability index no lower than 3: EEDENGLPRRRGLRKKKTTKLRLE [NEUROD6]
Result: fulfilled

Task: Determine whether this sequence has protein stability index no lower than 3: LALMIQSSGNTVLLLILCMQHSFP [TMEM192]
Result: not fulfilled

Task: Determine whether this sequence has protein stability index no lower than 3: MRSAAVLALLLCAGQVTALPVNSP [CHGA]
Result: fulfilled

====

test: protein stability index of a GFP-peptide fusion (GPS, HEK-293T) (PSI 1-6); higher = more stable; conditions: treatment: DMSO; c terminus: a fixed tail appended
Please enter rule met where protein stability index is greater than or equal to 4, and rule not met where it is lower.

> print(dat)
                       residue.codes  discrete.label
1  SSSASSSFSEEGAVGYSSDSETLD [NFE2L1]        rule met
2  VDPIGHLYIFATCLGLSYDGLLGD [MAGEA3]    rule not met
3  MPLKWKTSSPAIWKFPVPVLKTSR [KLHL13]    rule not met
4    ADKMTAEEVDQMFQFASIDVAGNL [MYL5]        rule met
5  FRRAPSWRKRFRPREHHGRGGMLS [PPFIA4]    rule not met

Task: Determine whether this sequence has protein stability index no lower than 4: GLRRVLDELTLARTDLEMQIEGLN [KRT15]
Result: rule not met

Task: Determine whether this sequence has protein stability index no lower than 4: ELQLEQSRAANQEQRANDLEQIME [CEP70]
Result: rule met

Task: Determine whether this sequence has protein stability index no lower than 4: LQMKLEKLREKERKKEAKRKISSL [FAM50A]
Result: rule not met

====

test: protein stability index of a GFP-peptide fusion (GPS, HEK-293T) (PSI 1-6); higher = more stable; details: treatment: DMSO; c terminus: a fixed tail appended
ENDPOINT NAME: protein stability index
Quick one: just the number, no unit, thanks!

See these solved cases before continuing.
> print(dat)
                      residue.codes  obs.value
1  LGVGLGVEISRRLRHSNPRADPLV [SPNS1]       3.08
2  DHQTLLSAAHEVELQRQKEAEKLE [NOP53]       5.46
3  QKKDCVPLMKPHRPWADTCSSSGK [HESX1]       3.49

Task: Could you tell me which protein stability index is on file for LNLNYNCISDELLENLCENASTLR [FBXO39] ?
Result: 3.28

Task: Could you tell me which protein stability index is on file for VSDRLAPGAPRGNPPKASAAPDCT [MYCL] ?
Result: 4.94

Task: Could you tell me which protein stability index is on file for PDANTWTALPPMNEARHNFGIVEI [GAN] ?
Result: 2.42

Task: Could you tell me which protein stability index is on file for LLLLLFWGVVSHSFPATLETQEQD [MMP1] ?
Result: 2.97

Task: Could you tell me which protein stability index is on file for HENETLASLKSEAESLKGKLEEER [GNB5] ?
Result: 5.29

Task: Could you tell me which protein stability index is on file for LLLSFWKETDPLTFNFISSLKAIC [PLD5] ?
Result: 3.47

Task: Could you tell me which protein stability index is on file for NCLTGEGEDTRLSASEMKQLIDNI [CIB1] ?
Result: 4.67

Task: Could you tell me which protein stability index is on file for KTYQETPEIDMFLNVATFLDPRYK [ZBED1] ?
Result: 2.38

Task: Could you tell me which protein stability index is on file for LEAEVKDTTRVENLIKSENYGKIL [R3HDM1] ?
Result: 4.3

Task: Could you tell me which protein stability index is on file for EECRMSGEFPSPVSISIISSTSGG [KRT71] ?
Result: 3.59

====

assay: protein stability index of a GFP-peptide fusion (GPS, HEK-293T) (PSI 1-6); higher = more stable; conditions: treatment: DMSO; c terminus: a fixed tail appended
ENDPOINT NAME: protein stability index
Quick one: just the number, no unit, thanks!

See these solved cases before continuing.
> print(dat)
                        residue.codes  obs.value
1   MKNKNNVTEFILLGLTQNPEGQKV [OR4A15]       2.44
2     SYSTSEQAELSYKKVSEGPPLRLW [DLC1]       2.73
3    VDSAEYSCLKAIVLFTSDACGLSD [NR2F2]       2.23
4  LLGPATGCLLDDGLEGLFEDIDTS [SERTAD1]       4.27
5  NNLLSAPPPDVTQLTPPSHDLTDN [ANKRD17]       5.12

Task: Could you tell me which protein stability index is on file for NTELQDVQRIMVANIEEVLQRGEA [SEC22B] ?
Result: 4.7

Task: Could you tell me which protein stability index is on file for LNSPPGPHSAKTEEHTTILRPSYT [CDC14A] ?
Result: 4.41

Task: Could you tell me which protein stability index is on file for LPLDDQVALLRAHAGEHLLLGATK [HNF4A] ?
Result: 3.6

Task: Could you tell me which protein stability index is on file for PEDEVIVNQYVIRPGPSASAASSA [RNF208] ?
Result: 4.61

====

experiment: protein stability index of a GFP-peptide fusion (GPS, HEK-293T) (PSI 1-6); higher = more stable; details: treatment: MLN4924 1 uM, 8 h; c terminus: a fixed tail appended
protein stability index values for the sequences below.
Quick one: just the number, no unit, thanks!

> print(dat)
                         residue.codes  obs.value
1      PQEESEESNVSMASLGEKRDHHST [CHGB]       5.58
2      CLGVHCDFHQGLLSFYNARTKQVL [FSD1]       2.27
3     SAPEQELLVQDATPVSNSLLPEKA [GFOD1]        5.4
4     LGVGLGVEISRRLRHSNPRADPLV [SPNS1]       2.96
5     HSALGGTKKKKKTIVTDVFQGSMR [USP39]       4.14
6  EDGSVELESQVQKDGVADSTVISS [C18orf25]       5.42
7     QEGSSGMELSWGQSPGQPVQGGSE [TEX19]       5.29
8     NTKNEISELTRLIQRIRSEIENVK [KRT71]       2.78

Task: Could you tell me which protein stability index is on file for STLKEVKPTVFIGVPQIWEKIHEM [ACSBG2] ?
Result: 2.27

====

assay: protein stability index of a GFP-peptide fusion (GPS, HEK-293T) (PSI 1-6); higher = more stable; conditions: treatment: MLN4924 1 uM, 8 h; c terminus: a fixed tail appended
Please enter T where protein stability index is greater than or equal to 3, and F where it is lower.

Solved entries:
> print(dat)
                       residue.codes  discrete.label
1    PYYLRSFLVVLKTVLENEDDMLLF [FAN1]               F
2    CQNKCRIALVENIPEGLNYSENAP [PLD5]               T
3  NTELQDVQRIMVANIEEVLQRGEA [SEC22B]               T
4  GTENGAIDAVPVDENLFTGEDLDE [ZC3H15]               T
5    ASGLTGFIGLEVVAQLFNCMVGLL [ATL3]               F

Task: Determine whether this sequence has protein stability index no lower than 3: KEQLSNDRETQEGKPPTAHLDRTS [ELOA2]
Result: T

Task: Determine whether this sequence has protein stability index no lower than 3: KEKCVSLPDCCHGSELRDFPGRPM [DLC1]
Result: T

Task: Determine whether this sequence has protein stability index no lower than 3: NTSIRVADFGSATFDHEHHTTIVA [CLK3]
Result: T

Task: Determine whether this sequence has protein stability index no lower than 3: KPEDTAEDLTAKRKRMKMDKTCSK [FAM9B]
Result: T

Task: Determine whether this sequence has protein stability index no lower than 3: GKPLYLIFRNLCQMQEDNSSFSLL [INTS3]
Result: F

Task: Determine whether this sequence has protein stability index no lower than 3: GQEYAAKIINTKKLSARDHQKLER [CAMK2D]
Result: T

Task: Determine whether this sequence has protein stability index no lower than 3: KQGSMNFRFIPVLFPNAKKEHVPT [TRAF3IP2]
Result: F

Task: Determine whether this sequence has protein stability index no lower than 3: LSRLSLMAMPNGFHEDGPQGPGGD [PSD2]
Result: T
